Target: furin, P09958;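 note: purified furin at 1:10 enzyme:substrate in 50 mM HEPES pH 7.5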
Sequence (P09958 whole entry): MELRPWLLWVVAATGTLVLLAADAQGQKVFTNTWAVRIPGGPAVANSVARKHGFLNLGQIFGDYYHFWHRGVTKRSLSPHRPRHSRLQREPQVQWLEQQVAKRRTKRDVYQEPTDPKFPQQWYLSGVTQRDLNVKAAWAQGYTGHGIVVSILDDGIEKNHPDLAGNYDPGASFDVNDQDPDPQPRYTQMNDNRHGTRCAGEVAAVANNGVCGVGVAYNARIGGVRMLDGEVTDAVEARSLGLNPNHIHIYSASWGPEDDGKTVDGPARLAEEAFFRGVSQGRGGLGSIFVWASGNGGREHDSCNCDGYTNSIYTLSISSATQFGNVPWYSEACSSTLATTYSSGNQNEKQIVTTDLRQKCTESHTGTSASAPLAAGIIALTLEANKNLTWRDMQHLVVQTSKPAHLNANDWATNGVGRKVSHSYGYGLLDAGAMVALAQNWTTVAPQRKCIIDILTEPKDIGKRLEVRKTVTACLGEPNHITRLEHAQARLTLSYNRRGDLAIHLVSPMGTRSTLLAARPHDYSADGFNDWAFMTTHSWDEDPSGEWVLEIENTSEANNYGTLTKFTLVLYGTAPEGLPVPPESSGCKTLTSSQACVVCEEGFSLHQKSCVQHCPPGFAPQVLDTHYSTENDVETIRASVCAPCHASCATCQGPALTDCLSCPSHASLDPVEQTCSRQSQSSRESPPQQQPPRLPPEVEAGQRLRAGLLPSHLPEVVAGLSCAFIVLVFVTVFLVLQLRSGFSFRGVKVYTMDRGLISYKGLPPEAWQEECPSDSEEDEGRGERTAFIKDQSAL
Test: furin cleavage Z-score vs untreated control; higher = more cleavage, active = 3.5 or more, inactive = 1 or less, 8 variable residues between constant flanks
Details: 15 min
The other results are listed elsewhere or left out. No count for the full screen is at hand.
Readout type: furin cleavage Z-score
Answers are plain numbers.

Below: 5 sequences and their reported furin cleavage Z-score.
Sequence chain | furin cleavage Z-score
CARMKREITTAGNASASA [FS-2047] | 9.89
CASGMFDSSVAGNASASA [HC915] | -0.578
CAEEVSFRVGAGNASASA [HC1232] | 1.08
CAVTKYIMTCAGNASASA [HC981] | -0.794
CAIRTEEAIYAGNASASA [HC1487] | -0.579

The following sequences each have a reported value; give each one's furin cleavage Z-score.
1. CAGKARARRTAGNASASA [FS-782]
2. CAKPTLHGPTAGNASASA [HC968]

a:
[7.95, 0.412]
